Please go through the items and note down their Papp B→A at 1.5 h, 10 µM.
- assayName: Apparent permeability from basolateral to apical side in human Caco2 cells at 10 uM after 90 mins by LC-MS/MS analysis
- Type: ADME, cell-based, Caco-2
- conditionSummary: Caco-2
Numbers only, in ×10⁻⁶ cm/s.

Consider the reported Papp B→A at 1.5 h, 10 µM for these compounds:
* CO[C@H]1C[C@H]2OC[C@@]2(OC(C)=O)[C@H]2[C@H](OC(=O)c3ccccc3)[C@]34OC(=O)O[C@H]3[C@H](OC(=O)[C@H](O)[C@@H](NC(=O)OC(C)(C)C)c3ccccc3)C(C)=C([C@@H](OC(=O)N(C)C)C(=O)[C@]12C)C4(C)C | 33.5
* CO[C@H]1C(=O)[C@]2(C)CC[C@H]3OC[C@@]3(OC(C)=O)[C@H]2[C@H](OC(=O)c2ccccc2)[C@]2(O)C[C@H](OC(=O)[C@H](O)[C@H](CC(C)C)NC(=O)OC(C)(C)C)C(C)=C1C2(C)C | 38.6

As a next step, examine the compound that follows.
Q: Please report Papp B→A at 1.5 h, 10 µM for the following compound: `CO[C@H]1C(=O)[C@@]2(C)[C@H]([C@H](OC(=O)c3ccccc3)[C@]34OC(=O)O[C@H]3[C@H](OC(=O)[C@H](O)[C@@H](NC(=O)OC(C)(C)C)c3ccccc3)C(C)=C1C4(C)C)[C@]1(OC(C)=O)CO[C@@H]1C[C@@H]2O`
A: 44.7

---

Would you mind telling me the reported inhibition of growth at 1 µM of each entry?
- Tested on: HT-29
- assayName: Cytotoxicity against human HT-29 cells at 1 uM after 72 hrs by MTT assay
- Type: functional
- conditionSummary: HT-29, 72 h, read-out: GI
One number for each entry, in %.

* CO[C@H]1C(=O)[C@]2(C)[C@@H](OC)C[C@H]3OC[C@@]3(OC(C)=O)[C@H]2[C@H](OC(=O)c2ccccc2)[C@]23OC(=O)O[C@H]2[C@H](OC(=O)[C@H](O)[C@@H](NC(=O)OC(C)(C)C)c2ccccc2)C(C)=C1C3(C)C | 89
* CO[C@H]1C(=O)[C@]2(C)[C@@H](OC)C[C@H]3OC[C@@]3(OC(C)=O)[C@H]2[C@H](OC(=O)c2ccccc2)[C@]2(O)C[C@H](OC(=O)[C@H](O)[C@@H](NC(=O)c3ccccc3)c3ccccc3)C(C)=C1C2(C)C | 87.5
* CO[C@H]1C[C@H]2OC[C@@]2(OC(C)=O)[C@H]2[C@H](OC(=O)c3ccccc3)[C@]3(O)C[C@H](OC(=O)[C@H](O)[C@@H](NC(=O)OC(C)(C)C)c4ccccc4)C(C)=C([C@@H](OC(=O)N(C)C)C(=O)[C@]12C)C3(C)C | 87.9

Could you now consider this next compound?
Q: Indicate its recorded inhibition of growth at 1 µM; the compound in question is `CO[C@H]1C(=O)[C@@]2(C)[C@H]([C@H](OC(=O)c3ccccc3)[C@]34OC(=O)O[C@H]3[C@H](OC(=O)[C@H](O)[C@@H](NC(=O)OC(C)(C)C)c3ccccc3)C(C)=C1C4(C)C)[C@]1(OC(C)=O)CO[C@@H]1C[C@@H]2O`
A: 86.6

---

- System: MDR1
- assayName: Efflux ratio of apparent permeability from basolateral to apical side over apical to basolateral side in MDCK cells expressing MDR1 at 5 uM after 90 mins
- Format: ADME, cell-based, Canis lupus familiaris
- conditionSummary: dog
assayEndpoint: efflux ratio at 1.5 h, 5 µM

// known answers, use as guide
- CC(=O)O[C@H]1C(=O)[C@@]2(C)[C@H]([C@H](OC(=O)c3ccccc3)[C@]3(O)C[C@H](OC(=O)[C@H](O)[C@@H](NC(=O)c4ccccc4)c4ccccc4)C(C)=C1C3(C)C)[C@]1(OC(C)=O)CO[C@@H]1C[C@@H]2O [PACLITAXEL]: 334
- CO[C@H]1C(=O)[C@]2(C)[C@@H](OC(=O)N(C)C)C[C@H]3OC[C@@]3(OC(C)=O)[C@H]2[C@H](OC(=O)c2ccccc2)[C@]2(O)C[C@H](OC(=O)[C@H](O)[C@@H](NC(=O)OC(C)(C)C)c3ccccc3)C(C)=C1C2(C)C: 10.1
- CO[C@H]1C[C@H]2OC[C@@]2(OC(C)=O)[C@H]2[C@H](OC(=O)c3ccccc3)[C@]34OC(=O)O[C@H]3[C@H](OC(=O)[C@H](O)[C@@H](NC(=O)OC(C)(C)C)c3ccccc3)C(C)=C([C@@H](OC(=O)N(C)C)C(=O)[C@]12C)C4(C)C: 10.1

Q: Provide efflux ratio at 1.5 h, 5 µM, recorded with MDR1, of C[C@H]1O[C@@H](O[C@H]2[C@@H](O)C[C@H](O[C@H]3[C@@H](O)C[C@H](O[C@H]4CC[C@@]5(C)[C@H](CC[C@@H]6[C@@H]5C[C@@H](O)[C@]5(C)[C@@H](C7=CC(=O)OC7)CC[C@]65O)C4)O[C@@H]3C)O[C@@H]2C)C[C@H](O)[C@@H]1O [DIGOXIN]
A: 65.5
